B1: NET1 (parent)
chain: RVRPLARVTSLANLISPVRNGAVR

Variants of: B1
Assay: protein stability index of a GFP-peptide fusion (GPS, HEK-293T) (PSI 1-6); higher = more stable;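 note: lentivirally expressed fusions sorted by FACS into six bins by GFP to DsRed ratio, PSI derived from sequencing read proportions per bin multiplied by bin number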
Conditions: c terminus: a fixed tail appended
Decision: protein stability index compared against 3; not below it gives True, below it gives False.

In [3]: df
Out[3]:
    mutant_code  assigned_label
 0         V18P            True
 1         R24H           False
 2          V8M           False
 3         P17A           False
 4         L14R            True
 5          T9W            True
 6         N13S           False
 7         S10A           False
 8         V18T            True
 9         P17M           False
10         N20M           False
11         V18C           False
12         A12S            True
13          L5Q            True
14         V23E           False
15          V2T            True
16         P17E           False
17          T9G            True
18          V2K            True
19         G21N           False
20         N20D            True
21         A22L           False
22          L5A            True
23          R3F           False
24         N13P            True
25          R7K           False
26         L14P            True
27          T9I           False
28         A22F           False
29          R1N            True
30         V23R            True
31          T9S            True
32         A12T            True
33         S10G           False
34         S10I            True
35          P4G           False
36         V18N            True
37         L11P            True
38         N13W           False
39         N13D            True
40          R7P            True
41         A22S            True
42         P17C            True
43          R3P            True
44         R19Y           False
45         A12R           False
46         V18I           False
47         V18S            True
48          R7W           False
49         R24K            True
50         R19D            True
51          R3N           False
52         S16N            True
53          V2P            True
54         A22K            True
55          L5W           False
56         R19T            True
57         N20Q            True
58          V2S            True
59         N13Q           False
60          V2N           False
61         S16P            True
62         R19S            True
63         I15Y            True
64         S16T            True
65         L14T            True
66          R1S            True
67          R1V           False
68         S16H           False
69         L11W           False
70         G21A            True
71         G21H           False
72         S10V            True
73          R3W           False
74         N13H           False
75         V18D            True
76         R24I           False
